target: Bromodomain-containing protein 4 (Homo sapiens)
pIC50: −log10 of the molar value.
So basically: pIC50 at 8 or higher? That is true (1). Lower than 8? That is false (0).

molecule	label_class
Cc1nnn2c1-c1ccc(C(=O)NCc3ccccc3)cc1N(c1ccc(Cl)cc1)CC2	false (0)

## Task Tell me whether pIC50 is at least 8 here: Cc1nnn2c1-c1ccc(C(O)C(F)(F)F)cc1N(c1ccc(Cl)cc1)CC2 (stereo not given)
## Result false (0)

## Task Tell me whether pIC50 is at least 8 here: `Cc1nnn2c1-c1ccc(Cn3cccn3)cc1N(c1ccc(Cl)cc1)CC2`
## Result false (0)

## Task Tell me whether pIC50 is at least 8 here: `Cc1nnn2c1-c1ccc(-c3nn[nH]n3)cc1N(c1ccc(Cl)cc1)CC2`
## Result true (1)

## Task Tell me whether pIC50 is at least 8 here: `Cc1nnn2c1-c1ccccc1N(c1ccccc1)C(=O)C2`
## Result false (0)

* * *

target: Bromodomain-containing protein 2 (Homo sapiens); assay: Inhibition of human His-tagged Brd2 bromodomain 1 expressed in Escherichia coli BL21 (DE3) preincubated for 30 mins followed by addition of biotinylated acetyl-histone H4 peptide and measured after 1 hr by AlphaScreen assay
Sequence (P25440 whole entry): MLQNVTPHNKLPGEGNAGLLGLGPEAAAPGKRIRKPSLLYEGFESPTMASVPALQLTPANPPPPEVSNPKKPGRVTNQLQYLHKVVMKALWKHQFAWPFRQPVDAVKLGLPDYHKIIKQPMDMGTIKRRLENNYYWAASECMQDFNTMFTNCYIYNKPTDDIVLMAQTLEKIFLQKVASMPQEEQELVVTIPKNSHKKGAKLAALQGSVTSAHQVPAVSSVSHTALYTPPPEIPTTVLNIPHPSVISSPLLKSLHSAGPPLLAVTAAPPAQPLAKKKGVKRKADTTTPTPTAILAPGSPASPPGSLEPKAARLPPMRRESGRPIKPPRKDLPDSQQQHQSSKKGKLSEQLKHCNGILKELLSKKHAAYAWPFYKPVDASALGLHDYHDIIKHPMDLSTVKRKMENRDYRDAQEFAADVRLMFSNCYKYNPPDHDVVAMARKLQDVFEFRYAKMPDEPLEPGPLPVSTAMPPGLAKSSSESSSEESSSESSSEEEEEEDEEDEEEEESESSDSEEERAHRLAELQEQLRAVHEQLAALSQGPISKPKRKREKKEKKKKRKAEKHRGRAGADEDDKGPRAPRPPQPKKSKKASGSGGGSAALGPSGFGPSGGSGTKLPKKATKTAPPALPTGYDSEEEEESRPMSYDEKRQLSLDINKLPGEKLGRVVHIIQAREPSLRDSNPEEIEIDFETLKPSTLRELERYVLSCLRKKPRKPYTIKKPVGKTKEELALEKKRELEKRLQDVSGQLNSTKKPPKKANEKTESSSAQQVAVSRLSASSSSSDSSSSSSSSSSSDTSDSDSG
What IC50 was measured for each of the following?
One number for each entry, in nM.

molecule	target_desc	numeric_value
Cc1nnn2c1-c1ccccc1N(c1ccc(Cl)cc1)CC2CCO (stereo not drawn)	Bromodomain-containing protein 2 (Homo sapiens)	340
Cc1nnn2c1-c1ccc(C(=O)O)cc1N(c1ccc(Cl)cc1)CC2	Bromodomain-containing protein 2 (Homo sapiens)	185
Cc1nnn2c1-c1ccccc1N(c1ccc(Cl)cc1)C[C@@H]2C	Bromodomain-containing protein 2 (Homo sapiens)	53

# batch size: 2; output IC50 per entry
1. Cc1nnn2c1-c1ccccc1N(c1ccc(Cl)cc1)C[C@H]2C
2. Cc1nnn2c1-c1ccc(C(=O)NC(c3ccccc3)c3ccccc3)cc1N(c1ccc(Cl)cc1)CC2

## Result
[38, 151]

# batch size: 2; output IC50 per entry
1. Cc1nnn2c1-c1ccccc1N(Cc1cccc(Br)c1)CC2
2. Cc1nnn2c1-c1ccc(C(=O)NS(=O)(=O)c3ccccc3)cc1N(c1ccc(Cl)cc1)CC2

## Result
[129, 54]

* * *

assay: Antiproliferative activity against mouse 494H cells after 72 hrs by Cell-TiterGlo assay; format: functional, cell-based
quantity_name: EC50

molecule	EC50
Cc1sc2c(c1C)C(c1ccc(Cl)cc1)=NC(CC(=O)OC(C)(C)C)c1nnc(C)n1-2 (stereo not drawn)	122 nM
Cc1nnn2c1-c1ccc(-c3cc[nH]n3)cc1N(c1ccc(Cl)cc1)CC2	194 nM

## Task Give its EC50 value. Item: `Cc1nnn2c1-c1ccc(-c3ccc(N)nc3)cc1N(c1ccc(Cl)cc1)CC2`
## Result 166 nM

* * *

What EC50 was measured for each of the following?
tested on: HEL 92.1.7; experiment: Antiproliferative activity against human HEL 92.1.7 cells after 72 hrs by Cell-TiterGlo assay; assay type: functional, cell-based; details: HEL 92.1.7, 72 h
Enter the number, and then the unit.

compound	result
Cc1sc2c(c1C)C(c1ccc(Cl)cc1)=NC(CC(=O)OC(C)(C)C)c1nnc(C)n1-2 (stereo not drawn)	180 nM

# batch size: 2; output EC50 per entry
1. Cc1nnn2c1-c1ccc(-c3ccc(N)nc3)cc1N(c1ccc(Cl)cc1)CC2
2. Cc1nnn2c1-c1ccc(-c3cc[nH]n3)cc1N(c1ccc(Cl)cc1)CC2

## Result
1: 400 nM; 2: 720 nM

* * *

biological target: Bromodomain-containing protein 4 (Homo sapiens)
What IC50 was measured for each of the following?
Give bare numbers, in nM.

Would you please look over these solved cases?
Cc1ccc(-c2ccc3c(c2)N(c2ccc(Cl)cc2)CCn2nnc(C)c2-3)cn1 7
Cc1nnn2c1-c1ccc(C#N)cc1N(c1ccc(Cl)cc1)CC2 13
Cc1nnn2c1-c1ccc(-c3cc[nH]n3)cc1N(c1ccc(Cl)cc1)CC2 7
Cc1nnn2c1-c1ccc(C(=O)NS(=O)(=O)c3ccccc3)cc1N(c1ccc(Cl)cc1)CC2 10

Shifting focus to the molecule that follows.
## Task Give its IC50 value. Item: `Cc1nnn2c1-c1ccc(-c3nn[nH]n3)cc1N(c1ccc(Cl)cc1)CC2`
## Result 2

* * *

What pIC50 was measured for each of the following?
molecular target: Bromodomain-containing protein 4 (Homo sapiens)
Give bare numbers, as −log10 of the molar value.

compound	pIC50
Cc1nnn2c1-c1ccc(C(N)=O)cc1N(c1ccc(Cl)cc1)CC2	8.70

# batch size: 6; output pIC50 per entry
1. Cc1nnn2c1-c1ccc(C(O)C(F)(F)F)cc1N(c1ccc(Cl)cc1)CC2 (stereo not given)
2. Cc1nnn2c1-c1ccc(-c3ccc(N)nc3)cc1N(c1ccc(Cl)cc1)CC2
3. Cc1nnn2c1-c1ccc(Cn3cccn3)cc1N(c1ccc(Cl)cc1)CC2
4. Cc1nnn2c1-c1ccc(C(=O)NCc3ccccc3)cc1N(c1ccc(Cl)cc1)CC2
5. Cc1nnn2c1-c1ccc(C(=O)NS(C)(=O)=O)cc1N(c1ccc(Cl)cc1)CC2
6. Cc1nnn2c1-c1ccccc1N(c1ccc(Cl)cc1)CC2CCO (stereo not given)

## Result
1: 7.64; 2: 8.22; 3: 7.42; 4: 7.82; 5: 8.15; 6: 7.44

## Task Item `Cc1nnn2c1-c1ccccc1N(Cc1cccc(Br)c1)CC2` with Bromodomain-containing protein 4 (Homo sapiens) - pIC50?
## Result 7.77

* * *

molecular target: Bromodomain-containing protein 2 (Homo sapiens); assay: Inhibition of human His-tagged Brd2 bromodomain 2 expressed in Escherichia coli BL21 (DE3) preincubated for 30 mins followed by addition of biotinylated acetyl-histone H4 peptide and measured after 1 hr by AlphaScreen assay
What IC50 was measured for each of the following?
Answers are plain numbers, in nM.

compound	IC50 (nM)
Cc1nnn2c1-c1ccc(C(=O)NC(c3ccccc3)c3ccccc3)cc1N(c1ccc(Cl)cc1)CC2	44
Cc1nnn2c1-c1ccccc1N(c1ccc(Cl)cc1)CC2CCO (stereo not drawn)	45
Cc1nnn2c1-c1ccc(C(=O)O)cc1N(c1ccc(Cl)cc1)CC2	50
Cc1nnn2c1-c1ccc(C(=O)NS(=O)(=O)c3ccccc3)cc1N(c1ccc(Cl)cc1)CC2	25
Cc1nnn2c1-c1ccccc1N(c1ccc(Cl)cc1)C[C@@H]2C	34

# batch size: 2; output IC50 per entry
1. Cc1nnn2c1-c1ccccc1N(c1ccc(Cl)cc1)C[C@H]2C
2. Cc1nnn2c1-c1ccccc1N(Cc1cccc(Br)c1)CC2

## Result
1: 25; 2: 44

* * *

Here's what we have: IC50 numbers for Bromodomain-containing protein 4 (Homo sapiens).
Numbers only, in nM.

Would you please look over these solved cases?
Cc1nnn2c1-c1ccc(C#N)cc1N(c1ccc(Cl)cc1)CC2 11
Cc1nnn2c1-c1ccc(C(N)=O)cc1N(c1ccc(Cl)cc1)CC2 6
Cc1nnn2c1-c1ccc(C(=O)NS(C)(=O)=O)cc1N(c1ccc(Cl)cc1)CC2 13

Shifting focus to the compound that follows.
## Task Give its IC50 value. Item: `Cc1nnn2c1-c1ccc(-c3cc[nH]n3)cc1N(c1ccc(Cl)cc1)CC2`
## Result 14
